# Test system: Enterobacter hormaechei
# assay.comment: Antibacterial activity against Enterobacter xiangfangensis CP017183.1 assessed as reduction in cell viability after 24 hrs by microdilution method
# Format: functional
# cond: subsp. xiangfangensis CP017183.1
measured.endpoint: MIC

[
  {
    "molecular.string": "NCC[C@H](O)C(=O)N[C@@H]1C[C@H](N)[C@@H](O[C@H]2O[C@H](CN)[C@@H](O)[C@H](O)[C@H]2O)[C@H](O)[C@H]1O[C@H]1O[C@H](CO)[C@@H](O)[C@H](N)[C@H]1O",
    "result": "0.2 µg/mL"
  },
  {
    "molecular.string": "O=c1cc(CO)occ1O",
    "result": "1.6 µg/mL"
  },
  {
    "molecular.string": "COc1cc(O)c2c3c(c(C)cc(C(=O)O)c13)[C@H](OC)OC2=O",
    "result": "7.8 µg/mL"
  },
  {
    "molecular.string": "COc1cc(O)c(C(=O)O)c(C2=COC(C(=O)O)=C[C@H]2C)c1C(=O)O",
    "result": "0.9 µg/mL"
  },
  {
    "molecular.string": "COc1cc(O)c(C(=O)O)c(C2=COC(C(=O)O)=C[C@H]2C)c1",
    "result": "3.7 µg/mL"
  },
  {
    "molecular.string": "COc1cc(O)cc(C2=COC(C(=O)O)=C[C@H]2C)c1",
    "result": "15.8 µg/mL"
  }
]

* * *

# assay.comment: Antibacterial activity against Escherichia fergusonii CU928158.2 assessed as reduction in cell viability after 24 hrs by microdilution method
# Format: functional
Each item that follows carries a reported MIC.
measured.endpoint: MIC (µg/mL)

[
  {
    "compound": "COc1cc(O)c(C(=O)O)c(C2=COC(C(=O)O)=C[C@H]2C)c1C(=O)O",
    "readout.units": "µg/mL",
    "result": 2.7
  },
  {
    "compound": "COc1cc(O)c2c3c(c(C)cc(C(=O)O)c13)[C@H](OC)OC2=O",
    "readout.units": "µg/mL",
    "result": 11.2
  },
  {
    "compound": "COc1cc(O)cc(C2=COC(C(=O)O)=C[C@H]2C)c1",
    "readout.units": "µg/mL",
    "result": 13.2
  },
  {
    "compound": "NCC[C@H](O)C(=O)N[C@@H]1C[C@H](N)[C@@H](O[C@H]2O[C@H](CN)[C@@H](O)[C@H](O)[C@H]2O)[C@H](O)[C@H]1O[C@H]1O[C@H](CO)[C@@H](O)[C@H](N)[C@H]1O [AMIKACIN]",
    "readout.units": "µg/mL",
    "result": 0.4
  },
  {
    "compound": "COc1cc(O)c(C(=O)O)c(C2=COC(C(=O)O)=C[C@H]2C)c1",
    "readout.units": "µg/mL",
    "result": 7.8
  },
  {
    "compound": "O=c1cc(CO)occ1O [KOJIC ACID]",
    "readout.units": "µg/mL",
    "result": 3.5
  }
]

* * *

# Tested on: Bacillus licheniformis
# assay.comment: Antibacterial activity against Bacillus licheniformis KX785171.1 assessed as reduction in cell viability after 24 hrs by microdilution method
# Format: functional
Each item that follows carries a reported MIC.

[
  {
    "molecule": "COc1cc(O)c(C(=O)O)c(C2=COC(C(=O)O)=C[C@H]2C)c1",
    "target.or.test.system": "Bacillus licheniformis",
    "MIC": "9.7 µg/mL"
  },
  {
    "molecule": "COc1cc(O)c2c3c(c(C)cc(C(=O)O)c13)[C@H](OC)OC2=O",
    "target.or.test.system": "Bacillus licheniformis",
    "MIC": "3.8 µg/mL"
  },
  {
    "molecule": "O=c1cc(CO)occ1O [KOJIC ACID]",
    "target.or.test.system": "Bacillus licheniformis",
    "MIC": "14.8 µg/mL"
  },
  {
    "molecule": "COc1cc(O)cc(C2=COC(C(=O)O)=C[C@H]2C)c1",
    "target.or.test.system": "Bacillus licheniformis",
    "MIC": "21.6 µg/mL"
  },
  {
    "molecule": "COc1cc(O)c(C(=O)O)c(C2=COC(C(=O)O)=C[C@H]2C)c1C(=O)O",
    "target.or.test.system": "Bacillus licheniformis",
    "MIC": "8.4 µg/mL"
  },
  {
    "molecule": "NCC[C@H](O)C(=O)N[C@@H]1C[C@H](N)[C@@H](O[C@H]2O[C@H](CN)[C@@H](O)[C@H](O)[C@H]2O)[C@H](O)[C@H]1O[C@H]1O[C@H](CO)[C@@H](O)[C@H](N)[C@H]1O [AMIKACIN]",
    "target.or.test.system": "Bacillus licheniformis",
    "MIC": "0.3 µg/mL"
  }
]
